test system: VSV-G pseudovirus; assay: microbe, parasite or virus in culture; assay type: cell-based, vesicular stomatitis virus; details: Pseudovirus, 293T/ACE2, read-out: % Infectivity of VSV-G pv
Structures can show the parent of a compound that is named as a salt.
measured-quantity: activity at 10 µM (%)
Answers are plain numbers, in %.

Solved entries:
molecule | result-units | activity at 10 µM
CC[C@H]1OC(=O)[C@H](C)[C@@H](O[C@H]2C[C@@](C)(OC)[C@@H](O)[C@H](C)O2)[C@H](C)[C@@H](O[C@@H]2O[C@H](C)C[C@H](N(C)C)[C@H]2O)[C@](C)(O)C[C@@H](C)CN(C)[C@H](C)[C@@H](O)[C@]1(C)O [azithromycin dihydrate] | % | 100
CC(CN1c2ccccc2Sc2ccccc21)N(C)C (stereo not drawn) [promethazine HCl] | % | 107
CN1CC2c3ccccc3Oc3ccc(Cl)cc3C2C1 (stereo not drawn) | % | 71
COc1cc2c(Oc3ccc(NC(=O)C4(C(=O)Nc5ccc(F)cc5)CC4)cc3F)ccnc2cc1OCCCN1CCOCC1 | % | 11
CCN(CCO)CCCC(C)Nc1ccnc2cc(Cl)ccc12 (stereo not drawn) [hydroxychloroquine sulfate] | % | 103

Consider the record given below.
Provide the documented activity at 10 µM with VSV-G pseudovirus as the system for C[C@]12CCC(=O)C=C1[C@@H]1C[C@@H]1[C@H]1[C@@H]3[C@@H]4C[C@@H]4[C@@]4(CCC(=O)O4)[C@@]3(C)CC[C@@H]12
381

---

assay: in vitro; settings: human, % Viability of SARS-2-Spike pv
Where a name gives a salt, the structure may show the parent alone.
For each of the molecules below, state its viability.

Solved entries:
molecule | measured-quantity | meas-value
CN1CCCC(n2nc(Cc3ccc(Cl)cc3)c3ccccc3c2=O)CC1 (centres unmarked) [azelastine HCl] | viability | 98%
CC(C)COc1ccc(CNC(=O)N(Cc2ccc(F)cc2)C2CCN(C)CC2)cc1 | viability | 70%
COc1cc(Nc2ncc3c(n2)-c2ccc(Cl)cc2C(c2c(F)cccc2OC)=NC3)ccc1C(=O)O | viability | 63 to 83%
CCc1cnn2c(NCc3ccc[n+]([O-])c3)cc(N3CCCC[C@H]3CCO)nc12 | viability | 55%

Please give viability for each item listed below.
1. Clc1ccc2c(c1)C(N1CCNCC1)=Nc1ccccc1O2
2. CN(C)CCC=C1c2ccccc2CCc2ccccc21 [amitriptyline HCl]
3. COc1cc2c(Oc3ccc(NC(=O)C4(C(=O)Nc5ccc(F)cc5)CC4)cc3F)ccnc2cc1OCCCN1CCOCC1
4. CC(CN(C)C)CN1c2ccccc2CCc2ccccc21 (centres unmarked) [trimipramine maleate]
5. CN1CCC(OC(c2ccccc2)c2ccccc2)CC1 [diphenylpyraline HCl]
6. CSc1ccc2c(c1)N(CCC1CCCCN1C)c1ccccc1S2 (centres unmarked) [thioridazine HCl]

["103%", "112%", "63%", "92%", "106%", "71%"]

Would you mind telling me what viability value was observed for O=C(c1ccc(OCCN2CCCCC2)cc1)c1c(-c2ccc(O)cc2)sc2cc(O)ccc12 [raloxifene HCl] ?
92%

---

experiment: in vitro; settings: human, % viability (Table S3)
Where a name gives a salt, the structure may show the parent alone.
For each of the compounds below, state its viability at 10 µM.

compound | measured-quantity | meas-value
NC1=NCC2c3ccccc3Cc3ccccc3N12 (stereo not shown) [Epinastine HCl] | viability at 10 µM | 94%

Please give viability at 10 µM for each item listed below.
1. CN1CCCCC1CCN1c2ccccc2Sc2ccc([S+](C)[O-])cc21 (stereo not shown) [Mesoridazine besylate]
2. Nc1c2c(nc3ccccc13)CCCC2 [Tacrine hydrochloride]
3. OCCOCCN1CCN(C2=Nc3ccccc3Sc3ccccc32)CC1 [Quetiapine Fumarate]

1. 97%
2. 97%
3. 96%
